Values were extracted from patent US6124308A.

ASSAY PROCEDURE: Half-life in male rats
Assay type: in vivo, rat
EXPERIMENTAL CONTEXT: rat, in vivo, read-out: half-life (t1/2) (converted)
PROPERTY LABEL: half-life
In your response, put the unit directly after the numeric value.

Lookup: Fill in: half-life of Nc1nc(N)c(-c2cccc(Cl)c2Cl)c(CF)n1 [R(-)enantiomer] is ___
Found: 5.4 h

###

ASSAY PROCEDURE: Solubility of salts in water and pH (drug addition method)
Format: physicochemical
EXPERIMENTAL CONTEXT: water, room temperature
PROPERTY LABEL: pH of the solution
# respond with the number and nothing more

Lookup: Fill in: pH of the solution of Nc1nc(N)c(-c2cccc(Cl)c2Cl)c(CF)n1 [Methanesulphonate] is ___
Found: 3.33

Lookup: Fill in: pH of the solution of Nc1nc(N)c(-c2cccc(Cl)c2Cl)c(CF)n1 [Benzoate] is ___
Found: 4.17

Lookup: Fill in: pH of the solution of Nc1nc(N)c(-c2cccc(Cl)c2Cl)c(CF)n1 [Acetate] is ___
Found: 5.54

###

SYSTEM TESTED: rat type IIA sodium channels (Rattus norvegicus, UniProt P04775)
Construct: no beta subunit mentioned
Sequence (P04775 whole entry): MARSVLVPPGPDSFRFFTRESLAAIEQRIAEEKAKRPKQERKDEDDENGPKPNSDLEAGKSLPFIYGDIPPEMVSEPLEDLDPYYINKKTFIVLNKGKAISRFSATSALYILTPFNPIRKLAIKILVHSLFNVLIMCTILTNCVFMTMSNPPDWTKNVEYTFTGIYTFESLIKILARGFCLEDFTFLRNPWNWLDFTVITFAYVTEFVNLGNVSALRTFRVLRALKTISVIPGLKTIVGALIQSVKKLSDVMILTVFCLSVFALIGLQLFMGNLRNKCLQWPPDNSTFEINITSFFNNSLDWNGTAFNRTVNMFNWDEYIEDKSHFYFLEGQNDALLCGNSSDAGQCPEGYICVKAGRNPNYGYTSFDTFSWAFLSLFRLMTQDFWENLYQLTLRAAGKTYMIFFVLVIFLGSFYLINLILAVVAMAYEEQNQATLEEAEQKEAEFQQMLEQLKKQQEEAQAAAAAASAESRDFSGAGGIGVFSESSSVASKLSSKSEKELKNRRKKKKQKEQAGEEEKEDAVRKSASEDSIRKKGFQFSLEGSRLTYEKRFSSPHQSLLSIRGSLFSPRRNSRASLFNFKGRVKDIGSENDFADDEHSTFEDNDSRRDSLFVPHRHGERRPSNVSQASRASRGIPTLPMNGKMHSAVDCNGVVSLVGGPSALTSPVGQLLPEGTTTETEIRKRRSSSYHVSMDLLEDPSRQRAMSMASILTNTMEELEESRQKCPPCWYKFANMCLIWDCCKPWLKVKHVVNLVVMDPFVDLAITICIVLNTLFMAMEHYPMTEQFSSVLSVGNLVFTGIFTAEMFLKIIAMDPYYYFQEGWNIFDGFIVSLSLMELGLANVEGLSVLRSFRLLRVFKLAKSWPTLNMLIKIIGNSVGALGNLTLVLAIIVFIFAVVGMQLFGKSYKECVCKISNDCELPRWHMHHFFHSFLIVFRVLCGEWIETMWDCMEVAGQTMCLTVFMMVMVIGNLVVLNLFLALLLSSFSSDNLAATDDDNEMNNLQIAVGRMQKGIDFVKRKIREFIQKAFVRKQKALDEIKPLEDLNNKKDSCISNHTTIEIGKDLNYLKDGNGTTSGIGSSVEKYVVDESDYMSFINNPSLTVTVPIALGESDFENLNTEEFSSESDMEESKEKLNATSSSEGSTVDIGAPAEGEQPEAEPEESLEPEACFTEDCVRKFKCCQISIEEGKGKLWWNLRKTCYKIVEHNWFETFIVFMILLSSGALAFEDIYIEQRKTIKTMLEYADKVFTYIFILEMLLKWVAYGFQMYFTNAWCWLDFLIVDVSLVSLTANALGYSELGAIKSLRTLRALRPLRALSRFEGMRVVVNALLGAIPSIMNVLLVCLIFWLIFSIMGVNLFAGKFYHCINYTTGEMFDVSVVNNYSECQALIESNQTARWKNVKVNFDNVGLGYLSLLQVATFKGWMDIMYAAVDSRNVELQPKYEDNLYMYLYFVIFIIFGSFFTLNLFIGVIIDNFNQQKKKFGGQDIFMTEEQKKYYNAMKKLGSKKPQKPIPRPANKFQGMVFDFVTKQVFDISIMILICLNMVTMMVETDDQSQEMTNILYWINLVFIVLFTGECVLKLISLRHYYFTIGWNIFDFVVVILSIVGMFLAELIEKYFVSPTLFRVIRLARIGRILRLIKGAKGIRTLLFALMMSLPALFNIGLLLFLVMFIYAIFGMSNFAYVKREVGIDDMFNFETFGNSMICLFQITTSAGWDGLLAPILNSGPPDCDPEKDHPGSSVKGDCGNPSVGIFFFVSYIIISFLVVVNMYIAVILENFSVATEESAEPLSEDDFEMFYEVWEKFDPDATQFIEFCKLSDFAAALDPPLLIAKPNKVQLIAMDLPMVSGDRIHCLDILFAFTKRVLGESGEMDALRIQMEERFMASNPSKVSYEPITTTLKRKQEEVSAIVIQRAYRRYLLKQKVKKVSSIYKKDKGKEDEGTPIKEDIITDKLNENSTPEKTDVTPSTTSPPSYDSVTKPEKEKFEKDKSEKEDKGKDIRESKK
ASSAY PROCEDURE: Recombinant rat type IIA sodium channels in chinese hamster ovary cells, whole-cell recording
Assay type: cell-based
EXPERIMENTAL CONTEXT: IC50 (inhibition of Na+ currents), Vh = -60 mV
PROPERTY LABEL: IC50 (µM)
The figure you give is taken to be in µM; do not add the unit.

Lookup: Fill in: IC50 of Nc1nnc(-c2cccc(Cl)c2Cl)c(N)n1 [Lamotrigine, reference compound] is ___
Found: 98

###

Test system: whole-cell sodium currents in cultured rat hippocampal neurones
ASSAY PROCEDURE: Whole-cell sodium currents in cultured embryonic rat hippocampal neurones, patch-clamp
Format: cell-based
EXPERIMENTAL CONTEXT: Rattus norvegicus, Hippocampal neurone, 20 msec pulses to -10 mV from holding potential -60 mV; read-out: IC50 (reduction of peak sodium current)
PROPERTY LABEL: IC50 (µM)
The figure you give is taken to be in µM; do not add the unit.

Lookup: IC50 / whole-cell sodium currents in cultured rat hippocampal neurones / Nc1nnc(-c2cccc(Cl)c2Cl)c(N)n1 [Lamotrigine, reference compound]
Found: 16

###

SYSTEM TESTED: rat type IIA sodium channels (Rattus norvegicus)
Construct: no beta subunit mentioned
ASSAY PROCEDURE: Recombinant rat type IIA sodium channels in chinese hamster ovary cells, whole-cell recording
Assay type: cell-based
EXPERIMENTAL CONTEXT: IC50 (inhibition of Na+ currents), Vh = -90 mV
PROPERTY LABEL: pIC50
# pIC50: negative log10 of molar concentration; output just the value

Lookup: Fill in: pIC50 of Nc1nnc(-c2cccc(Cl)c2Cl)c(N)n1 [Lamotrigine, reference compound] is ___
Found: 3.38

###

ASSAY PROCEDURE: Solubility of salts in water and pH (drug addition method)
Type: physicochemical
EXPERIMENTAL CONTEXT: water, room temperature
PROPERTY LABEL: pH of the solution
# respond with the number and nothing more

Lookup: Fill in: pH of the solution of Nc1nc(N)c(-c2cccc(Cl)c2Cl)c(CF)n1 [Isethionate] is ___
Found: 1.67

Lookup: Fill in: pH of the solution of Nc1nc(N)c(-c2cccc(Cl)c2Cl)c(CF)n1 [Succinate] is ___
Found: 4.09

Lookup: Fill in: pH of the solution of Nc1nc(N)c(-c2cccc(Cl)c2Cl)c(CF)n1 [Tartrate] is ___
Found: 3.48

Lookup: Fill in: pH of the solution of Nc1nc(N)c(-c2cccc(Cl)c2Cl)c(CF)n1 [Benzenesulphonate] is ___
Found: 2.43

Lookup: Fill in: pH of the solution of Nc1nc(N)c(-c2cccc(Cl)c2Cl)c(CF)n1 [Fumarate] is ___
Found: 3.04

Lookup: Fill in: pH of the solution of Nc1nc(N)c(-c2cccc(Cl)c2Cl)c(CF)n1 [Citrate] is ___
Found: 3.99

Lookup: Fill in: pH of the solution of Nc1nc(N)c(-c2cccc(Cl)c2Cl)c(CF)n1 [Sulphate] is ___
Found: 1.92

Lookup: Fill in: pH of the solution of Nc1nc(N)c(-c2cccc(Cl)c2Cl)c(CF)n1 [Phosphate] is ___
Found: 2.34

Lookup: Fill in: pH of the solution of Nc1nc(N)c(-c2cccc(Cl)c2Cl)c(CF)n1 [Malonate] is ___
Found: 3.2

Lookup: Fill in: pH of the solution of Nc1nc(N)c(-c2cccc(Cl)c2Cl)c(CF)n1 [(L)-Lactate] is ___
Found: 3.43

###

SYSTEM TESTED: rat type IIA sodium channels (Rattus norvegicus)
Construct: no beta subunit mentioned
ASSAY PROCEDURE: Recombinant rat type IIA sodium channels in chinese hamster ovary cells, whole-cell recording
Format: cell-based
EXPERIMENTAL CONTEXT: Vh = -90 mV; read-out: IC50 (inhibition of Na+ currents)
PROPERTY LABEL: IC50

Lookup: Fill in: IC50 of Nc1nc(N)c(-c2cccc(Cl)c2Cl)c(CF)n1 [R(-)enantiomer] is ___
Found: 160 µM

###

ASSAY PROCEDURE: Melting profile / stability of salts (Mettler hotstage and DSC)
Assay type: physicochemical
EXPERIMENTAL CONTEXT: 10° C./min
Decision: temperature of racemisation indicated by hotstage/DSC >= 200 °C yields yes, all other cases yield no.

Lookup: Please tell me: is the molecule Nc1nc(N)c(-c2cccc(Cl)c2Cl)c(CF)n1 [(L)-Lactate] at or over 200 °C in terms of temperature of racemisation indicated by hotstage/DSC?
Found: no

Lookup: Please tell me: is the molecule Nc1nc(N)c(-c2cccc(Cl)c2Cl)c(CF)n1 [Fumarate] at or over 200 °C in terms of temperature of racemisation indicated by hotstage/DSC?
Found: no

Lookup: Please tell me: is the molecule Nc1nc(N)c(-c2cccc(Cl)c2Cl)c(CF)n1 [Methanesulphonate] at or over 200 °C in terms of temperature of racemisation indicated by hotstage/DSC?
Found: yes

Lookup: Please tell me: is the molecule Nc1nc(N)c(-c2cccc(Cl)c2Cl)c(CF)n1 [Succinate] at or over 200 °C in terms of temperature of racemisation indicated by hotstage/DSC?
Found: no
